Recorded values, source patent US10676465B2.

# assay.target: human GLP-1R (Homo sapiens (Human), UniProt P43220, L260F)
# Sequence (P43220 24-463 L260F): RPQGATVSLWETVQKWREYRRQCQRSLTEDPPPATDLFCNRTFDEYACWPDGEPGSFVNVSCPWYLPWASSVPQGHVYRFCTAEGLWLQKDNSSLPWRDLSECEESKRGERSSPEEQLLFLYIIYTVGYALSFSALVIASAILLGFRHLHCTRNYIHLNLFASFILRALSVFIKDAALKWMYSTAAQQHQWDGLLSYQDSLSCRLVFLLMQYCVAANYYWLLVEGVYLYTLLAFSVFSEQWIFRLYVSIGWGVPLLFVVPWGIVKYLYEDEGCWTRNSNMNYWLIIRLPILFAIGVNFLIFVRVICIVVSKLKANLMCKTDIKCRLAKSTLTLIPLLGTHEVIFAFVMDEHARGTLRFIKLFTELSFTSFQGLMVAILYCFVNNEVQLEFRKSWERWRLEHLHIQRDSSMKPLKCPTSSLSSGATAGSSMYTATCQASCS
# assay.summary: CHO GLP-1R Clone C6 - Assay 2 (HTRF cAMP agonist assay, low receptor density)
# experimental.parameters: read-out: Assay 2 Emax (%), CHO GLP-1R Clone C6 (low receptor density); arithmetic mean, relative to saturating GLP-1 (1 μM)
metric.name: Emax (%)

Study these solved cases before continuing.
molecule="COCCn1c(CN2CCC(c3cccc4c3OC(C)(c3cccc(F)c3)O4)CC2)nc2ccc(C(=O)O)cc21 (centres unmarked)" observed_measurement=65
molecule="CC1(c2ccc(Cl)cc2F)Oc2cccc(C3CCN(Cc4nc5ccc(C(=O)O)cc5n4CCn4ccnc4)CC3)c2O1 (centres unmarked)" observed_measurement=92
molecule="CN(C)C(=O)Cn1c(CN2CCC(c3cccc4c3OC(C)(c3ccc(Cl)cc3F)O4)CC2)nc2ccc(C(=O)O)cc21 (centres unmarked)" observed_measurement=74

P. CCn1ccnc1Cn1c(CN2CCC(c3cccc4c3OC(C)(c3ccc(Cl)cc3F)O4)CC2)nc2ccc(C(=O)O)cc21 (centres unmarked)
Q. Cn1cnc(CCn2c(CN3CCC(c4cccc5c4OC(C)(c4ccc(Cl)cc4F)O5)CC3)nc3ccc(C(=O)O)cc32)c1 (centres unmarked)
## Input For this pair, P and Q , which shows a numerically higher Emax? Reply briefly: the label of your chosen item.
## Output P
(P: 81%, Q: 50%)
